The entries below are paired with their reported IC50.
# Tested On: Ephrin type-B receptor 3 (Mus musculus, UniProt P54754)
# Sequence (P54754 whole entry): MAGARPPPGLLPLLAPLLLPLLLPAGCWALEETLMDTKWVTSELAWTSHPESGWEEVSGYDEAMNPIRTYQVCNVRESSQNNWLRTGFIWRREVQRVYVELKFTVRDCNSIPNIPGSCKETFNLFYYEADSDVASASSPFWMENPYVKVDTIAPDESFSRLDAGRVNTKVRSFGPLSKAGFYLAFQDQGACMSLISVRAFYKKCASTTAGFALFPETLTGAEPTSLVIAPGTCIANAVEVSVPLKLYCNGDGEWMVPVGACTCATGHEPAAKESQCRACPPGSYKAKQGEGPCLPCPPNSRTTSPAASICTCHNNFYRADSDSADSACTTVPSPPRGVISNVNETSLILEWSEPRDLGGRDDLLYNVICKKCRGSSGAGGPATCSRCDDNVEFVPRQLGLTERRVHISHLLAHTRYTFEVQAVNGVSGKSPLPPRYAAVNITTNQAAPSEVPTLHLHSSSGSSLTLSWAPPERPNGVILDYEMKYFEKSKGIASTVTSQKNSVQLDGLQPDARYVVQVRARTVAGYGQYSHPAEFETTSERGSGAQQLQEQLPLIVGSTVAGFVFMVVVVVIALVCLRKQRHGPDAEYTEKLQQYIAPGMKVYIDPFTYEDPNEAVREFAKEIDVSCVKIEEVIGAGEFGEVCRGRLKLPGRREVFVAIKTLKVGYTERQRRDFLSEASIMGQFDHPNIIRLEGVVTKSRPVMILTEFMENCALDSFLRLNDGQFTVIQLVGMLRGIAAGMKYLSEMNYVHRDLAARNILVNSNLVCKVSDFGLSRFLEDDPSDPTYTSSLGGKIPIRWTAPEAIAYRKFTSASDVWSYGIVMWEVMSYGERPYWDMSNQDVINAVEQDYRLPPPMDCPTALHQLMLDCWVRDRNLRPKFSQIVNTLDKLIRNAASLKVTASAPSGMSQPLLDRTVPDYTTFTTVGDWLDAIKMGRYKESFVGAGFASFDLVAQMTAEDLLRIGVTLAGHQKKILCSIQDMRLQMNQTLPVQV
# Assay Protocol: Displacement of biotinylated Fc-tagged ephrin-B1 from recombinant mouse EphB3 (Leu 30 to Thru537 residues) preincubated for 1 hr followed by ephrin-B1-Fc addition and measured after 4 to 5 hrs by ELISA assay

1. C[C@H](CCC(=O)N[C@H](CC(=O)O)Cc1cn(S(=O)(=O)c2ccccc2)c2ccccc12)[C@H]1CC[C@H]2[C@@H]3CC=C4C[C@@H](O)CC[C@]4(C)[C@H]3CC[C@]12C : > 30 µM
2. C[C@H](CCC(=O)N[C@H](CC(=O)O)Cc1cn(S(=O)(=O)c2ccc(C(F)(F)F)cc2)c2ccccc12)[C@H]1CC[C@H]2[C@@H]3CC=C4C[C@@H](O)CC[C@]4(C)[C@H]3CC[C@]12C : > 30 µM

Let us examine a further case.
Ephrin type-B receptor 3 (Mus musculus, UniProt P54754) assay, molecule "C[C@H](CCC(=O)N[C@H](CC(=O)O)Cc1c[nH]c2ccccc12)[C@H]1CC[C@H]2[C@@H]3CC=C4C[C@@H](O)CC[C@]4(C)[C@H]3CC[C@]12C" , recorded IC50 = 9.8 µM
